- System: HepG2-ACTB-RAB5A
- assay details: phenotypically active (imaging signature differs from DMSO and reproducible) at any of 0.3-9 uM (binary (1 = active, 0 = inactive)); higher = active
- test settings: treatment time: 24 h
Where a name gives a salt, the structure may show the parent alone.
Outcome codes: y for active, n for inactive

compound	class
C[C@@H](CO)NC(=O)[C@@H]1C=C2c3cccc4[nH]cc(c34)C[C@H]2N(C)C1 [Ergobasine]	n
c1ccc([C@@H]2C[C@H]2NC2CCNCC2)cc1 [GSK LSD 1 dihydrochloride]	n
CCOc1cc(C=O)ccc1O [Ethylvanilline]	n
C[C@@H]1CN([C@H]2CC[C@](C#N)(c3ccc(F)cc3)CC2)CC[C@]1(C(=O)O)c1ccccc1 [levocabastine]	n
COc1ccc2c(c1)/C(=C/c1c[nH]cn1)C(=O)N2	y
OCC[N+]12CN3CN(CN(C3)C1)C2	n
C[C@@H]1C[C@@H]([C@H](O)CC2CC(=O)NC(=O)C2)C(=O)[C@@H](C)C1 [Cycloheximide]	y
COc1ccc2c(c[n+](C)c3c4cc5c(cc4ccc23)OCO5)c1OC [Chelerythrine chloride]	n
C=C1C/C(=C\C)C(=O)O[C@@H]2CCN3CC=C(COC(=O)[C@]1(C)O)[C@H]23 [Seneciphylline]	n
CC[N+](CC)(CCCNC1=CC(=O)C(NCCC[N+](CC)(CC)Cc2ccccc2)=CC1=O)Cc1ccccc1 [Benzoquinonium dibromide]	n
N[C@@H]1C[C@H]1c1ccccc1 [Tranylcypromine hydrochloride]	n
O=C1CCCN1CC#CCN1CCCC1 [Oxotremorine sesquifumarate]	n
CO[C@H]1C=C2CCN(C)[C@H]2[C@@H]2c3cc4c(cc3[C@@H](O)O[C@@H]21)OCO4 [Unsevine]	n
CCC(=O)C(CC(C)N(C)C)(c1ccccc1)c1ccccc1 (configuration not stated) [methadone]	n
CCN1C[C@]2(COC)CC[C@H](OC)[C@]34[C@@H]5C[C@H]6[C@H](OC)[C@@H]5[C@@]5(C[C@@H]6OC)OCO[C@@]5([C@H]13)[C@@H](O)[C@H]24 [Delcorine]	n
C[C@@H]1O[C@H](C[N+](C)(C)C)C[C@H]1O [(+)-Muscarine iodide]	n
C=C1[C@@H](O)C2C=CC[C@H](C)C(=O)[C@](C)(O)C=C[C@@H](OC(C)=O)[C@]23C(=O)N[C@H](Cc2ccccc2)[C@@H]3[C@@H]1C (some centres not stated) [Cytochalasin D]	y

###

- Tested on: WPMY1-ACTB-RAB5A
- assay details: phenotypically active (imaging signature differs from DMSO and reproducible) at any of 0.3-9 uM (binary (1 = active, 0 = inactive)); higher = active
- test settings: treatment time: 24 h
Labels: Y (active), N (inactive)

> print(dat)
                                   molecule  class
1  Cc1ccc(-c2nc3ccc(C)cn3c2CC(=O)N(C)C)cc1 [zolpidem]      N
2  CCCN1C[C@H](CSC)C[C@@H]2c3cccc4[nH]cc(c34)C[C@H]21 [pergolide]      N
3  C[C@@H]1CC[C@H]2[C@@H](C)C(=O)O[C@@H]3O[C@@]4(C)CC[C@@H]1[C@]32OO4 [Artemisinin]      Y
4          CC(C)c1cccc(C(C)C)c1O [propofol]      N
5  CC1=C2[C@H]3OC(=O)[C@@H](C)[C@@H]3CC[C@@]2(C)C=CC1=O [alpha-Santonin]      N
6  CC(C)(O)[C@H]1O[C@H]2CC[C@@]3(C)[C@@](O)(CC[C@H]4Cc5c([nH]c6ccccc56)[C@@]43C)C2=CC1=O [paxilline]      N
7  CCCCCOc1ccc(C(=O)c2cccc3ccccc23)c2ccccc12      N
8        CNC(C)(C)Cc1ccccc1 [mephentermine]      N
9  O[C@H]1[C@H](O)[C@@H](O)CN2CC[C@H](O)[C@H]12 [Castanospermine]      N

###

- System: WPMY1-GM130-SQSTM1
- assay details: phenotypically active (imaging signature differs from DMSO and reproducible) at any of 0.3-9 uM (binary (1 = active, 0 = inactive)); higher = active
- test settings: treatment time: 24 h
Where a name gives a salt, the structure may show the parent alone.
Possible outcomes: active, inactive

compound	class
C[C@H](CCC(=O)O)C[C@H](C)C[C@H](C)C(=O)/C=C(\O)[C@H](C)C[C@H](C)C/C=C/[C@@H](C)[C@@H](O)[C@@H](C)[C@@H](O)C[C@@H]1CC[C@@](C)([C@H]2CC[C@@](C)([C@@H](C)O)O2)O1 [Ionomycin free acid]	active
CNC(=O)Oc1ccc2c(c1)[C@]1(C)CCN(C)[C@@H]1N2C [Eserine sulfate, physostigmine sulfate]	inactive
O=C1CCCN1CC#CCN1CCCC1 [Oxotremorine sesquifumarate]	inactive
COc1cc2c(cc1O)C[C@H]1c3c(cc(O)c(OC)c3-2)CCN1C	active
OCC[N+]12CN3CN(CN(C3)C1)C2	inactive
O=C(NCCN1CCC2(CC1)C(=O)NCN2c1cccc(F)c1)c1ccc(F)c(F)c1 [ML 298 hydrochloride]	active
CC(C)[C@@]1(NC(=O)[C@@H]2C[C@@H]3c4cccc5[nH]cc(c45)C[C@H]3N(C)C2)O[C@@]2(O)[C@@H]3CCCN3C(=O)[C@H](Cc3ccccc3)N2C1=O [Dihydroergocristine mesylate]	active
CN(C)NC(=O)CCC(=O)O [Daminozide]	inactive
C[C@]12CC[C@H]3[C@@H](CC[C@]4(O)C[C@@H](O)CC[C@]34C=O)[C@@]1(O)CC[C@@H]2C1=CC(=O)OC1	active
CNCC(O)c1ccc(O)c(OC)c1 (stereo not drawn) [Metanephrine hydrochloride DL]	inactive

###

- System: HepG2-TP53BP1-CLTA
- assay details: lowest phenotypically active concentration; higher = less potent
- test settings: treatment time: 24 h
value kind: lowest phenotypically active concentration (µM)

molecule	reading qualifier	reported
CN1C[C@H](C(=O)N[C@]2(C)O[C@@]3(O)[C@@H]4CCCN4C(=O)[C@H](Cc4ccccc4)N3C2=O)C[C@@H]2c3cccc4[nH]cc(c34)C[C@H]21.CN1C[C@H](C(=O)N[C@]2(C)O[C@@]3(O)[C@@H]4CCCN4C(=O)[C@H](Cc4ccccc4)N3C2=O)C[C@@H]2c3cccc4[nH]cc(c34)C[C@H]21 [dihydroergotamine]	=	9
C[C@H]1O[C@@H](O[C@H]2[C@@H](O)C[C@H](O[C@H]3[C@@H](O)C[C@H](O[C@H]4CC[C@@]5(C)[C@H](CC[C@@H]6[C@@H]5CC[C@]5(C)[C@@H](C7=CC(=O)OC7)[C@@H](O)C[C@]65O)C4)O[C@@H]3C)O[C@@H]2C)C[C@H](O)[C@@H]1O [Gitoxin]	≤	0.3
O=C1NC(=O)c2c1c1c3ccccc3n3c1c1c2c2ccccc2n1C1CCC3O1	=	9

###

- Test system: HepG2-CANX-COX4
- assay details: lowest phenotypically active concentration; higher = less potent
- test settings: treatment time: 24 h
A collection of compounds and their measured lowest phenotypically active concentration
value kind: lowest phenotypically active concentration (µM)

compound	reading qualifier	reported
CCN(CC)CCN1C(=O)CN=C(c2ccccc2F)c2cc(Cl)ccc21 [flurazepam]	=	1
COc1cc([C@@H]2c3cc4c(cc3[C@H](O)[C@H]3COC(=O)[C@H]23)OCO4)cc(OC)c1OC [Podophyllotoxin]	≤	0.3
C[C@]12CC[C@H]3[C@@H](CC[C@]4(O)C[C@@H](O)CC[C@]34C=O)[C@@]1(O)CC[C@@H]2C1=CC(=O)OC1 [Strophanthidin]	=	1
O=C1NC(=S)N(c2cccc(Br)c2)C(=O)/C1=C/c1ccco1	=	9
C[C@]12CC[C@H](O)C[C@H]1CC[C@@H]1[C@@H]2CC[C@]2(C)[C@@H](C3=CC(=O)OC3)CC[C@]12O [Digitoxigenin]	≤	0.3
C/C=C(/C)C(=O)O[C@H]1C(C)=C2[C@H]([C@@H]1OC(=O)CCCCCCC)[C@@](C)(OC(C)=O)C[C@H](OC(=O)CCC)[C@@]1(O)[C@H]2OC(=O)[C@@]1(C)O [Thapsigargin]	≤	0.3

###

Each record here notes measured lowest phenotypically active concentration.
- System: HepG2-TUBA1B-RELA
- assay details: lowest phenotypically active concentration; higher = less potent
- test settings: treatment time: 24 h
Where a name gives a salt, the structure may show the parent alone.
value kind: lowest phenotypically active concentration (µM)

compound	subject of test	reading qualifier	reported
CC(C)[C@@]1(NC(=O)[C@@H]2C[C@@H]3c4cccc5[nH]cc(c45)C[C@H]3N(C)C2)O[C@@]2(O)[C@@H]3CCCN3C(=O)[C@H](Cc3ccccc3)N2C1=O [Dihydroergocristine mesylate]	HepG2-TUBA1B-RELA	=	3
C[C@@]1(CO)[C@H](O)CC[C@@]2(C)[C@H]1CC[C@H]1C[C@@H]3C[C@@]12CC[C@]3(O)CO [Aphidicolin]	HepG2-TUBA1B-RELA	≤	0.3
Cc1cc2c(C(C)C)c(O)c(O)c(C=O)c2c(O)c1-c1c(C)cc2c(C(C)C)c(O)c(O)c(C=O)c2c1O [gossypol]	HepG2-TUBA1B-RELA	=	9
C[C@@H]1CC[C@H]2[C@@H](C)C(=O)O[C@@H]3O[C@@]4(C)CC[C@@H]1[C@]32OO4 [Artemisinin]	HepG2-TUBA1B-RELA	≤	0.3
CN1C[C@H](C(=O)N[C@]2(C)O[C@@]3(O)[C@@H]4CCCN4C(=O)[C@H](Cc4ccccc4)N3C2=O)C[C@@H]2c3cccc4[nH]cc(c34)C[C@H]21.CN1C[C@H](C(=O)N[C@]2(C)O[C@@]3(O)[C@@H]4CCCN4C(=O)[C@H](Cc4ccccc4)N3C2=O)C[C@@H]2c3cccc4[nH]cc(c34)C[C@H]21 [dihydroergotamine]	HepG2-TUBA1B-RELA	=	9
C[C@]12CC[C@H]3[C@@H](CC[C@]4(O)C[C@@H](O)CC[C@]34C=O)[C@@]1(O)CC[C@@H]2C1=CC(=O)OC1 [Strophanthidin]	HepG2-TUBA1B-RELA	≤	0.3
COc1ccc(CCN2CCC(Nc3nc4ccccc4n3Cc3ccc(F)cc3)CC2)cc1 [astemizole]	HepG2-TUBA1B-RELA	=	1
COC1=CC(C)=C[C@@H](C)[C@@H](O)[C@@H](C)CC(C)=CC=C[C@H](OC)[C@@H]([C@@H](C)[C@@H](O)[C@H](C)[C@@]2(O)C[C@@H](O)[C@H](C)[C@@H](C(C)C)O2)OC1=O [Bafilomycin A1]	HepG2-TUBA1B-RELA	=	3
COc1ccc2c(c1)/C(=C/c1c[nH]cn1)C(=O)N2	HepG2-TUBA1B-RELA	=	1
COc1cc([C@@H]2c3cc4c(cc3[C@H](O)[C@H]3COC(=O)[C@H]23)OCO4)cc(OC)c1OC [Podophyllotoxin]	HepG2-TUBA1B-RELA	≤	0.3
N#CC(C#N)=NNc1cccc(Cl)c1	HepG2-TUBA1B-RELA	=	9
CC(C)C[C@H]1C(=O)N2CCC[C@H]2[C@]2(O)O[C@](NC(=O)[C@@H]3C=C4c5cccc6[nH]c(Br)c(c56)C[C@H]4N(C)C3)(C(C)C)C(=O)N12 [bromocriptine]	HepG2-TUBA1B-RELA	=	9
